Study System: Urotensin-2 receptor (Homo sapiens)
Procedure Text: Agonist activity at human GPR14 expressed in HEK293 cells by calcium mobilization assay
Peptide text beside a SMILES is read from it.
Property Measured: EC50
Lab note: write values as number then unit, every time.

Query :: Any idea what its EC50 is? The compound is NCCCC[C@@H]1NC(=O)[C@H](Cc2c[nH]c3ccccc23)NC(=O)[C@H](Cc2ccc(O)cc2)NC(=O)CNC(=O)[C@@H]2CCCN2C(=O)[C@H](Cc2ccccc2)NC1=O (cyclo(FPGYWK))
Result :: 75.7 nM

Query :: Param item: NCCCC[C@@H]1NC(=O)[C@H](Cc2c[nH]c3ccccc23)NC(=O)[C@H](Cc2ccccc2)NC(=O)CNC(=O)[C@@H]2CCCN2C(=O)[C@H](Cc2c[nH]c3ccccc23)NC1=O (cyclo(FWKWPG))
Result :: 20.6 nM

Query :: Same question for NCCCC[C@@H]1NC(=O)[C@H](Cc2c[nH]c3ccccc23)NC(=O)[C@H](CO)NC(=O)CNC(=O)[C@@H]2CCCN2C(=O)[C@H](Cc2ccccc2)NC1=O (cyclo(FPGSWK)) please.
Result :: 10.1 nM

Query :: Can you check NCCCC[C@@H]1NC(=O)[C@H](Cc2c[nH]c3ccccc23)NC(=O)[C@H](CO)NC(=O)CNC(=O)[C@@H]2CCCN2C(=O)[C@H](Cc2c[nH]c3ccccc23)NC1=O (cyclo(GSWKWP)) next?
Result :: 16.7 nM

Query :: For NCCCC[C@@H]1NC(=O)[C@H](Cc2c[nH]c3ccccc23)NC(=O)[C@H](CO)NC(=O)CNC(=O)[C@@H]2CCCN2C(=O)[C@H](Cc2ccc(O)cc2)NC1=O (cyclo(GSWKYP)) then?
Result :: 8.51 nM

* * *

Study System: Urotensin-2 receptor (Homo sapiens, UniProt Q9UKP6)
Sequence (Q9UKP6 whole entry): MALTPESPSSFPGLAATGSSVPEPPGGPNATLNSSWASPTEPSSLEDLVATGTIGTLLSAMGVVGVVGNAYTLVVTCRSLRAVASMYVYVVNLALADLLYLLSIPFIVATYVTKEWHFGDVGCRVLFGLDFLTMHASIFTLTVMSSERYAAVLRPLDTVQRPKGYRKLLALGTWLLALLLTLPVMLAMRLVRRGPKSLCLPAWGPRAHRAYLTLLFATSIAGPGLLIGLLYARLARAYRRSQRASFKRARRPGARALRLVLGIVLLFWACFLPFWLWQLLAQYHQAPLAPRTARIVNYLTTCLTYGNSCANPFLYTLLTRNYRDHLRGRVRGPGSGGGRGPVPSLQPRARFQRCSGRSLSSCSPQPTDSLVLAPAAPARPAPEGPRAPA
Procedure Text: Agonist activity at human GPR14 expressed in HEK293 cells by calcium mobilization assay
Peptide text beside a SMILES is read from it.
Property Measured: pEC50
pEC50 field: float, defined as -log10 of concentration (mol/L).

Query :: Please look up its pEC50: NCCCC[C@@H]1NC(=O)[C@H](Cc2c[nH]c3ccccc23)NC(=O)[C@H](Cc2ccccc2)NC(=O)CNC(=O)[C@@H]2CCCN2C(=O)[C@H](Cc2ccc(O)cc2)NC1=O (cyclo(FWKYPG))
Result :: 8.16

Query :: What about NCCCC[C@@H]1NC(=O)[C@H](Cc2c[nH]c3ccccc23)NC(=O)[C@H](Cc2ccc(O)cc2)NC(=O)CNC(=O)[C@@H]2CCCN2C(=O)[C@H](Cc2ccc(O)cc2)NC1=O (cyclo(GYWKYP)) ?
Result :: 7.90

Query :: What do you get for NCCCC[C@@H]1NC(=O)[C@H](Cc2c[nH]c3ccccc23)NC(=O)[C@H](Cc2ccccc2)NC(=O)CNC(=O)[C@@H]2CCCN2C(=O)[C@H](Cc2ccccc2)NC1=O (cyclo(FPGFWK)) ?
Result :: 7.88

The values you see were collected from ChEMBL document CHEMBL1152563.
